src = PubChem BioAssay AID1159580

Experiment: chemical genetic growth profiling, strain panel (AID 1159580);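 further: tested at 20 µM; growth read once vehicle control cultures reached saturation at 30 °C; 1 = growth at the plate median or of vehicle wells; lower values mean less growth of the strain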
Conditions: S. cerevisiae deletion strains, growth OD, locus YLR102C, strain apc9, hits give low values
Hit rate of the full screen: of about 5,500 compounds, about 2,000 (36%) were called active. Inconclusive results (about 18%) are left out. This is one part of the list.
Please assign 0 (no) whenever normalized growth is at or above 1, and 1 (yes) whenever it is below.

Consider `CC1=C2[C@H]3OC(=O)[C@@H](C)[C@@H]3CC[C@@]2(C)C=CC1=O` . Does its normalized growth lie strictly below 1? 0 (no)

Consider `O=c1cc(-c2ccccc2)oc2cc(O)c(O)c(O)c12` . Does its normalized growth lie strictly below 1? 1 (yes)

Consider CSc1ccc2c(c1)N(CCC1CCCCN1C)c1ccccc1S2 (stereo unspecified) . Does its normalized growth lie strictly below 1? 1 (yes)

###

Assay: chemical genetic growth profiling, strain panel (AID 1159580)
Settings: S. cerevisiae deletion strains, growth OD, locus YLR221C, strain rsa3, hits give low values
The campaign covered roughly 5,500 compounds. About 2,000 (36%) were called active. About 18% were inconclusive and are not listed. This is one part of the list.
RECORDED_ENDPOINT: normalized growth
// response body must contain only the number

GET /value?item= `CC(=O)Nc1ccccc1` &field=normalized growth returns 0.967

GET /value?item= C=C1C2CC[C@@]3(C)[C@H](c4ccoc4)OC(=O)C[C@]13O[C@H]1CC(O)C(C)(C)C(CC(=O)OC)[C@@]21C (stereo not given in full) &field=normalized growth returns 0.981

GET /value?item= `O=c1cc(-c2ccccc2)oc2cc(O)c(O)c(O)c12` &field=normalized growth returns 0.521

GET /value?item= COc1c2ccoc2nc2c(OC)c(OCC(O)C(C)(C)O)ccc12 (stereo not given) &field=normalized growth returns 1.03

GET /value?item= `COc1c2ccccc2nc2occc12` &field=normalized growth returns 0.927

GET /value?item= `O=c1cc(-c2ccccc2)oc2cccc(O)c12` &field=normalized growth returns 0.883

GET /value?item= `S=P(N1CC1)(N1CC1)N1CC1` &field=normalized growth returns 0.996

GET /value?item= C[C@]12C=CC(=O)C=C1CCC1C3C[C@@H](O)[C@](O)(C(=O)CO)[C@@]3(C)C[C@H](O)[C@@]12F (stereo not given in full) &field=normalized growth returns 1.01

GET /value?item= C=C1C2CCC3(C)C(c4ccoc4)OC(=O)CC13OC1CC(OC(C)=O)C(C)(C)C(CC(=O)OC)C12C (stereo not given) &field=normalized growth returns 0.995

GET /value?item= CC(CCC(=O)O)[C@H]1CCC2C3C(C[C@H](O)[C@@]21C)[C@@]1(C)CC[C@@H](O)C[C@H]1C[C@H]3O (stereo not given in full) &field=normalized growth returns 1.01

###

Test: chemical genetic growth profiling, strain panel (AID 1159580);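 further: tested at 20 µM; growth read once vehicle control cultures reached saturation at 30 °C; 1 = growth at the plate median or of vehicle wells; lower values mean less growth of the strain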
Settings: S. cerevisiae deletion strains, growth OD, locus YCR088W, strain abp1, hits give low values
Hit rate of the full screen: of about 5,500 compounds, about 2,000 (36%) were called active. Inconclusive results (about 18%) are left out. The list shows a part of the results.
Please respond with reported normalized growth for every item in the list.
// response body must contain only the number

GET /value?item= `CN(C(=O)CN(CCO)CC(=O)N(C)C(C)(C)Cc1ccccc1)C(C)(C)Cc1ccccc1` &field=normalized growth returns 1.01

GET /value?item= `S=P(N1CC1)(N1CC1)N1CC1` &field=normalized growth returns 1.02

GET /value?item= `CCOC(=O)[C@H](CCc1ccccc1)N[C@@H](C)C(=O)N1Cc2ccccc2C[C@H]1C(=O)O` &field=normalized growth returns 1

GET /value?item= `CCCC(C(=O)OCCN(CC)CC)(c1ccccc1)c1ccccc1` &field=normalized growth returns 1

GET /value?item= `Cc1nc2ccccn2c(=O)c1CCN1CCC(C(=O)c2ccc(F)cc2)CC1` &field=normalized growth returns 0.982

GET /value?item= `N[C@H](Cc1ccccc1)C(=O)O` &field=normalized growth returns 0.987

GET /value?item= `COc1ccc(C(=O)N2CCCC2=O)cc1` &field=normalized growth returns 0.981

GET /value?item= NS(=O)(=O)c1cc2c(cc1Cl)NC(C1CC3C=CC1C3)NS2(=O)=O (centres undefined) &field=normalized growth returns 0.991

GET /value?item= `COc1cc([C@H]2Oc3cc([C@H]4Oc5cc(O)cc(O)c5C(=O)[C@@H]4O)ccc3O[C@@H]2CO)ccc1O` &field=normalized growth returns 1.01

GET /value?item= C[C@@H]1O[C@@H](O[C@H]2C[C@@H](O)[C@]3(CO)C4C(CC[C@]3(O)C2)[C@@]2(O)CC[C@H](C3=CC(=O)OC3)[C@@]2(C)C[C@H]4O)[C@H](O)[C@H](O)[C@H]1O (some centres undefined) &field=normalized growth returns 1.02

GET /value?item= NC(Cc1ccc(F)cc1)C(=O)O (centres undefined) &field=normalized growth returns 1.02

GET /value?item= `CC1=C2[C@H]3OC(=O)[C@@H](C)[C@@H]3CC[C@@]2(C)C=CC1=O` &field=normalized growth returns 0.976

GET /value?item= `CCN(CCCc1ccccc1)CCCc1ccccc1` &field=normalized growth returns 0.99

GET /value?item= COc1cc(S(C)=O)ccc1-c1nc2ncccc2[nH]1 (centres undefined) &field=normalized growth returns 0.981

GET /value?item= `Nc1cc(C(Cl)=C(Cl)Cl)c(S(N)(=O)=O)cc1S(N)(=O)=O` &field=normalized growth returns 1.01

GET /value?item= OC[C@H]1OC([S-])[C@H](O)[C@@H](O)[C@@H]1O.[Au+] (some centres undefined) &field=normalized growth returns 1.01

GET /value?item= CCCCCC1C(=O)CCC1CC(=O)OC (centres undefined) &field=normalized growth returns 0.973

GET /value?item= `COc1cc(C)c(C(=O)Oc2cc(C)c(C(=O)O)c(O)c2C)c(OC)c1C` &field=normalized growth returns 0.994

GET /value?item= COc1c2ccoc2nc2c(OC)c(OCC(O)C(C)(C)O)ccc12 (centres undefined) &field=normalized growth returns 1.02

GET /value?item= CCCCCC1C(=O)CCC1CC(=O)O (centres undefined) &field=normalized growth returns 0.976

GET /value?item= `CCCC(CCC)C(=O)O` &field=normalized growth returns 1.01

GET /value?item= `C/C=C/C(=O)N(CC)c1ccccc1C` &field=normalized growth returns 1

GET /value?item= Cc1ncc([N+](=O)[O-])n1CC(C)O (centres undefined) &field=normalized growth returns 0.986

GET /value?item= `CCN(CC)CCOC(=O)C(c1ccccc1)c1ccccc1` &field=normalized growth returns 0.968

###

Experiment: chemical genetic growth profiling, strain panel (AID 1159580);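 further: tested at 20 µM; growth read once vehicle control cultures reached saturation at 30 °C; 1 = growth at the plate median or of vehicle wells; lower values mean less growth of the strain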
Settings: S. cerevisiae deletion strains, growth OD, locus YDR502C, strain sam2
The campaign covered roughly 5,500 compounds. About 2,000 (36%) were called active. About 18% were inconclusive and are not listed. Rule as the data show it: active = normalized growth mostly below about 0.91 (no sharp cut-off); inconclusive = no clear call, values can overlap the other calls; inactive = mostly above about 0.92. Some of the results follow.
Respond using exactly one of the listed classes: yes (1) = active, no (0) = inactive

Which outcome was assigned to Cc1cc(C)cc(OCC2CNC(=O)O2)c1 (stereo unspecified) in this test? no (0)

Which outcome was assigned to C[C@@H]1CC2C3C[C@H](F)C4=CC(=O)C=C[C@]4(C)[C@@]3(F)[C@@H](O)C[C@]2(C)[C@@]1(O)C(=O)COC(=O)C(C)(C)C (stereo partly specified) in this test? no (0)

Which outcome was assigned to `CN(C)N=Nc1nc[nH]c1C(N)=O` in this test? no (0)

Which outcome was assigned to CN(C)CCOC(=O)C(c1ccccc1)C1(O)CCCC1 (stereo unspecified) in this test? no (0)

Which outcome was assigned to CC(=O)O[C@H]1CC[C@]2(C)C3=CC(=O)[C@@]4(C)C(C[C@@H]5OC6(OCC(C)CC6Br)[C@@H](C)[C@@H]54)C3CC[C@H]2C1 (stereo partly specified) in this test? no (0)

Which outcome was assigned to `CCC(=O)Nc1ccc(Cl)c(Cl)c1` in this test? no (0)

Which outcome was assigned to `CN(C)C(=O)Nc1ccc(Cl)c(Cl)c1` in this test? no (0)

Which outcome was assigned to `O=C(O)CCCOc1ccc(Cl)cc1Cl` in this test? no (0)

Which outcome was assigned to `CN(C(=O)CN(CCO)CC(=O)N(C)C(C)(C)Cc1ccccc1)C(C)(C)Cc1ccccc1` in this test? no (0)

Which outcome was assigned to CC1CC2C3CC(F)C4=CC(=O)C=CC4(C)C3(F)C(O)CC2(C)C1C(=O)COC(=O)C(C)(C)C (stereo unspecified) in this test? no (0)

Which outcome was assigned to `O=c1cc(-c2ccccc2)oc2cc(O)c(O)c(O)c12` in this test? yes (1)

###

Please respond with reported normalized growth for every item in the list.
Assay: chemical genetic growth profiling, strain panel (AID 1159580);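 further: tested at 20 µM; growth read once vehicle control cultures reached saturation at 30 °C; 1 = growth at the plate median or of vehicle wells; lower values mean less growth of the strain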
Conditions: S. cerevisiae deletion strains, growth OD, locus YCL061C, strain MRC1 (second series), hits give low values
Hit rate of the full screen: of about 5,500 compounds, about 2,000 (36%) were called active. About 18% were inconclusive and are not listed. The list shows a part of the results.
// response body must contain only the number

GET /value?item= `O=c1[nH]cnc2[nH]ncc12` &field=normalized growth returns 0.996

GET /value?item= `NC(=O)C(=O)O` &field=normalized growth returns 1

GET /value?item= CSc1ccc2c(c1)N(CCC1CCCCN1C)c1ccccc1S2 (stereo not drawn) &field=normalized growth returns 0.991

GET /value?item= OCC1O[C@H](O)C(Cl)C(O)C1O (stereo partly drawn) &field=normalized growth returns 1.01

GET /value?item= CC(CN1c2ccccc2Sc2ccccc21)N(C)C (stereo not drawn) &field=normalized growth returns 0.998

GET /value?item= `O=[N+]([O-])c1cccc2cn[nH]c12` &field=normalized growth returns 1

GET /value?item= `C[C@]12N[C@H](Cc3ccccc31)c1ccccc12` &field=normalized growth returns 0.988

GET /value?item= `C[C@H](N)CN1CCc2ccc(Br)cc21` &field=normalized growth returns 0.992

GET /value?item= `NS(=O)(=O)c1cccc2c1c([N+](=O)[O-])cc1nc(O)c(O)nc12` &field=normalized growth returns 0.998

GET /value?item= `CNC(=O)[C@H]1O[C@@H](n2cnc3c(NCc4ccc(I)cc4)nc(Cl)nc32)[C@H](O)[C@@H]1O` &field=normalized growth returns 0.996

GET /value?item= CCN(CC)C(C)C(=O)N1c2ccccc2Sc2ccccc21 (stereo not drawn) &field=normalized growth returns 1.01

GET /value?item= `Cc1[nH]c(=O)c(C#N)cc1-c1ccncc1` &field=normalized growth returns 1.01

GET /value?item= `Nc1ccncc1` &field=normalized growth returns 1
